In this section, each of the compounds is paired with its reported FGFR2/FGFR4 IC50 ratio.
molecular target: FGFR4 (Homo sapiens (Human)); assay: FGFR Enzymatic Assay (FRET peptide phosphorylation), FGFR4; conditions: IC50 ratio showing FGFR4 selectivity; pre-incubated for 4 hours
Sequence (P22455 22-802): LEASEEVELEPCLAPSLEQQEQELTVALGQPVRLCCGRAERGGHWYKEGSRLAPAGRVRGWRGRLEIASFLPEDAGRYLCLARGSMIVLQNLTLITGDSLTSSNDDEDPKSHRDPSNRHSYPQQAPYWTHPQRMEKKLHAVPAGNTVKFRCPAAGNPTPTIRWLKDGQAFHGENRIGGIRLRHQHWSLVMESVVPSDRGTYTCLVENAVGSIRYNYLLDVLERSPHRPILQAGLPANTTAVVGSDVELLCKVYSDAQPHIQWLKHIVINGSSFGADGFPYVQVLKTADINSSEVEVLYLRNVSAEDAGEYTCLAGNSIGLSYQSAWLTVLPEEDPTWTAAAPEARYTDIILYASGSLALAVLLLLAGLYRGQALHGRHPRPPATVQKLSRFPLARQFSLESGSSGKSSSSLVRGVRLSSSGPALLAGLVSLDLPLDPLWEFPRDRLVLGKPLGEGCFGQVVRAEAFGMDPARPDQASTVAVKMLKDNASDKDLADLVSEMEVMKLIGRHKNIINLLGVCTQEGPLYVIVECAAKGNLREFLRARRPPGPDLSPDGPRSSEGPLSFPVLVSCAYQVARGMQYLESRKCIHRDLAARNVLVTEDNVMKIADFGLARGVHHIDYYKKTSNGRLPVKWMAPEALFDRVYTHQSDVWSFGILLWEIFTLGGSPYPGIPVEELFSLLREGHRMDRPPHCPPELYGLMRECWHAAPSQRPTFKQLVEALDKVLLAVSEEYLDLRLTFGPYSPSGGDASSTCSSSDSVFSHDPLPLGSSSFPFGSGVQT
measured-endpoint: FGFR2/FGFR4 IC50 ratio

compound: C=CC(=O)Nc1ccc(C)c(-c2ncc3c(n2)C2(CC2)C(=O)N(c2c(F)c(OC)cc(OC)c2F)C3)c1
measured-endpoint: FGFR2/FGFR4 IC50 ratio
assay-value: >100

compound: C=CC(=O)Nc1cnc(C)c(-c2cc3c(cn2)CN(c2c(F)c(OC)cc(OC)c2F)C(=O)C32CC2)c1
measured-endpoint: FGFR2/FGFR4 IC50 ratio
assay-value: >100

compound: C=CC(=O)N1CCCC(c2cc3c(cn2)CN(c2c(F)c(OC)cc(OC)c2F)C(=O)C32CC2)C1 (stereo not shown)
measured-endpoint: FGFR2/FGFR4 IC50 ratio
assay-value: >2

compound: C=CC(=O)Nc1cnn(CC2CCOCC2)c1-c1cc2c(cn1)CN(c1c(F)c(OC)cc(OC)c1F)C(=O)C21CC1
measured-endpoint: FGFR2/FGFR4 IC50 ratio
assay-value: >100

compound: C=CC(=O)Nc1cc(-c2cc3c(cn2)CN(c2c(F)c(OC)cc(OC)c2F)C(=O)C32CC2)cc(N2CCOCC2)c1
measured-endpoint: FGFR2/FGFR4 IC50 ratio
assay-value: >100

compound: C=CC(=O)Nc1cnn(C2CCOCC2)c1-c1cc2c(cn1)CN(c1c(F)c(OC)cc(OC)c1F)C(=O)C21CC1
measured-endpoint: FGFR2/FGFR4 IC50 ratio
assay-value: >50

compound: C=CC(=O)Nc1ccc(C)c(-c2cc3c(cn2)CN(c2c(F)c(OC)cc(OC)c2F)C(=O)C32CC2)c1
measured-endpoint: FGFR2/FGFR4 IC50 ratio
assay-value: >100

compound: C=CC(=O)Nc1cnn(CCO)c1-c1cc2c(cn1)CN(c1c(F)c(OC)cc(OC)c1F)C(=O)C21CC1
measured-endpoint: FGFR2/FGFR4 IC50 ratio
assay-value: >100

compound: C=CC(=O)Nc1cnn(Cc2cccnc2)c1-c1cc2c(cn1)CN(c1c(F)c(OC)cc(OC)c1F)C(=O)C21CC1
measured-endpoint: FGFR2/FGFR4 IC50 ratio
assay-value: >100

compound: C=CC(=O)Nc1cnn(CCOCC)c1-c1cc2c(cn1)CN(c1c(F)c(OC)cc(OC)c1F)C(=O)C21CC1
measured-endpoint: FGFR2/FGFR4 IC50 ratio
assay-value: >100

* * *

The following molecules are shown together with reported IC50 values.
molecular target: FGFR4 (Homo sapiens (Human)); assay: FGFR Enzymatic Assay (FRET peptide phosphorylation), FGFR4; details: read-out: FGFR4 IC50; pre-incubated for 4 hours
measured-endpoint: IC50

structure-string: C=CC(=O)Nc1cnn(Cc2ncn(C)n2)c1-c1cc2c(cn1)CN(c1c(F)c(OC)cc(OC)c1F)C(=O)C21CC1
measured-endpoint: IC50
assay-value: < 10 nM
//
structure-string: C=CC(=O)Nc1ccc(C)c(-c2cc3c(cn2)CN(c2c(F)c(OC)cc(OC)c2F)C(=O)C32CC2)c1
measured-endpoint: IC50
assay-value: < 10 nM
//
structure-string: C=CC(=O)Nc1cnn(CCOCC)c1-c1cc2c(cn1)CN(c1c(F)c(OC)cc(OC)c1F)C(=O)C21CC1
measured-endpoint: IC50
assay-value: < 10 nM
//
structure-string: C=CC(=O)Nc1cc(-c2cc3c(cn2)CN(c2c(F)c(OC)cc(OC)c2F)C(=O)C32CC2)ccc1CO
measured-endpoint: IC50
assay-value: < 10 nM
//
structure-string: C=CC(=O)Nc1cc(-c2cc3c(cn2)CN(c2c(F)c(OC)cc(OC)c2F)C(=O)C32CC2)ccc1CN1CCOCC1
measured-endpoint: IC50
assay-value: < 10 nM
//
structure-string: C=CC(=O)Nc1cnn(CCOC)c1-c1cc2c(cn1)CN(c1c(F)c(OC)cc(OC)c1F)C(=O)C21CC1
measured-endpoint: IC50
assay-value: < 10 nM
//
structure-string: C=CC(=O)Nc1cn(CCOC(F)(F)F)nc1-c1cc2c(cn1)CN(c1c(F)c(OC)cc(OC)c1F)C(=O)C21CC1
measured-endpoint: IC50
assay-value: < 10 nM

Source listed as patent US9580423B2.
